B1: TPR t1 (parent)
chain: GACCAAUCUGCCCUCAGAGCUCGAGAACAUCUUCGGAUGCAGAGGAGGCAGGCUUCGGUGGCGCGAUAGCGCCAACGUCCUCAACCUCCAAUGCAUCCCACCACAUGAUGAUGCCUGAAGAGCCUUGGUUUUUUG

- Variants of: B1
- Protocol text: polymerase ribozyme fitness, log enrichment relative to wild type (log ratio); higher = more active; in vitro selection for triplet polymerase activity
Measured endpoint: polymerase ribozyme fitness (log ratio)

Some solved entries appear below for comparison.
Exercise: Suppose we examine the variant C13A G36A C72U A121C G127U ; what polymerase ribozyme fitness (log ratio) value has been reported?
Solution: -0.199

Exercise: And what about the variant C72U A105G ?
Solution: -3.04

Exercise: And what about the variant C8G G63A A83G C85A G122A ?
Solution: -1.28

Exercise: And what about the variant G10U C79A ?
Solution: -0.723

Exercise: And what about the variant U87A G122A ?
Solution: -0.168

Record polymerase ribozyme fitness (log ratio) per entry; entries follow.
1. G63U A105G
2. A18C G42A G44U C53G G93A
3. C101G G135C
4. U14G G110A U130A

Solution:
1: -3.13; 2: -4.64; 3: -1.41; 4: -3.04

Record polymerase ribozyme fitness (log ratio) per entry; entries follow.
1. C8U C80G
2. U7A A41U C85U
3. G63A C64U
4. C8G U55A
5. U96A C104U U132A
6. C11U G17A G57C C89U G120C
7. G42A G71U

Solution:
1: -4.55; 2: -1.81; 3: -5.38; 4: 0.0363; 5: -0.322; 6: -1.86; 7: -2.41
